- TEST: BET inhibitor-based combinations targeting novel dependencies in MECOM-rearranged (r) AML: UCSD-AML1 cell line (AID 2202235); also: nearly all actives have a fitted effect of over 40% in size
- EXPERIMENTAL CONDITIONS: UCSD-AML1 AML cells viability, CellTiter-Glo, 48 h; series mostly up to 46 µM
- Procedure: Ecotropic viral insertion site 1 (EVI1) is located on chromosome 3q26.2 as part of the MECOM (MDS and EVI1 complex) locus. […] A collection of 2480 mechanistically annotated dugs (MIPE v5.0) was used to screen four 3q26.2 rearranged AML cell lines and three non-3q26.2 rearranged AML cell lines. […] Cell viability was determined by luminescence based, Cell Titer Glo assay (Promega). […] Luminescence readings were taken using a Viewlux (PerkinElmer) with a 2 s exposure time per plate. […]
Records with an inconclusive call do not appear. The source made the active and inactive calls. Calls follow the shape of the dose curve; as a rule, active = well fitted inhibition curve with a large enough effect; inconclusive = small, poorly fitted or top-dose-only effect; inactive = no such curve, though single readings can be large or run the other way.
Could you please pick one outcome from this set? T = active, F = inactive

Here's what some known entries look like.
COMPOUND | ASSIGNED CATEGORY
CCC(=O)O[C@]1(C(=O)SCF)[C@H](C)C[C@H]2[C@@H]3C[C@H](F)C4=CC(=O)C=C[C@]4(C)[C@@]3(F)[C@@H](O)C[C@@]21C | F
COC1CCC(N(C(=O)C2CCC(C)CC2)c2cc(C3=CCCCC3)sc2C(=O)O)CC1 (stereo unspecified) | F
CCCCc1oc2ccccc2c1C(=O)c1cc(I)c(OCCN(CC)CC)c(I)c1 | T
COc1ccc2[nH]c(S(=O)Cc3ncc(C)c(OC)c3C)nc2n1 (stereo unspecified) | F
CC(C)N(CCCNC(=O)Nc1ccc(C(C)(C)C)cc1)C[C@H]1O[C@@H](n2ccc3c(N)ncnc32)[C@H](O)[C@@H]1O | F
O=C1CCC(N2C(=O)c3ccccc3C2=O)C(=O)N1 (stereo unspecified) | F
C1COC(NC(C2CC2)C2CC2)=N1 | F
CC(C)N(CCCNC(=O)Nc1ccc(C(C)(C)C)cc1)C[C@H]1O[C@@H](n2cc(Br)c3c(N)ncnc32)[C@H](O)[C@@H]1O | F

Prompt line: I'd appreciate the recorded outcome for `Cc1cccc(Oc2cnc(=O)[nH]c2)c1` from this test.
Response line: F

Prompt line: I'd appreciate the recorded outcome for `CN(N=O)C(=O)N[C@@H]1[C@@H](O)[C@H](O)[C@@H](CO)O[C@@H]1O` from this test.
Response line: F

Prompt line: I'd appreciate the recorded outcome for `O=[N+]([O-])c1cncn1CCN1CCOCC1` from this test.
Response line: F

Prompt line: I'd appreciate the recorded outcome for `c1cc(-c2sc(-c3ccncc3)c(-c3ccncc3)c2-c2ccncc2)ccn1` from this test.
Response line: F

Prompt line: I'd appreciate the recorded outcome for `COCCOc1ccc2c(c1)ncn2-c1ccc2cccc(N3CCC(N)CC3)c2n1` from this test.
Response line: T

Prompt line: I'd appreciate the recorded outcome for CC(C)Cc1ccc(C(C)C(=O)O)cc1 (stereo unspecified) from this test.
Response line: F

Prompt line: I'd appreciate the recorded outcome for `CC(C)(O)c1cc2nc(-c3cnc(N)nc3)nc(N3CCOCC3)c2s1` from this test.
Response line: T

Prompt line: I'd appreciate the recorded outcome for `Cc1ccc(-c2cc(C(F)(F)F)nn2-c2ccc(S(N)(=O)=O)cc2)cc1` from this test.
Response line: F

Prompt line: I'd appreciate the recorded outcome for `Cc1cc(Nc2ncc(Cl)c(Nc3ccccc3S(=O)(=O)C(C)C)n2)c(OC(C)C)cc1C1CCNCC1` from this test.
Response line: T

Prompt line: I'd appreciate the recorded outcome for `COc1ccccc1N1CCN(CCN(C(=O)C2CCCCC2)c2ccccn2)CC1` from this test.
Response line: F

Prompt line: I'd appreciate the recorded outcome for `NS(=O)(=O)c1cccc2c1C(=O)c1cccc(O)c1C2=O` from this test.
Response line: T

Prompt line: I'd appreciate the recorded outcome for Cc1c(OCC(F)(F)F)ccnc1CS(=O)c1nc2ccccc2[nH]1 (stereo unspecified) from this test.
Response line: F

Prompt line: I'd appreciate the recorded outcome for `Cc1c(F)cc(C(=O)NC2CC2)cc1-c1ccc(C(=O)NCC(C)(C)C)cn1` from this test.
Response line: F
